Reference source: patent US20100215747A1

Assay: Log P value of drug
Type: physicochemical
Details: octanol/water
Reported Endpoint: logP

{"columns": ["Molecule", "Observed Value"],
 "data": [
  ["O=C1NC(=O)C(c2ccccc2)(c2ccccc2)N1 [Drug 3, diphenylhydantoin]", 2.47]
]}

* * *

Assay: Solubility of drug in water
Assay type: physicochemical
Settings: read-out: solubility in water
As shown below, each of these molecules has a reported solubility value.

{"columns": ["Cpd Smiles", "solubility"],
 "data": [
  ["CC[C@@H]1C[C@H](N(Cc2cc(C(F)(F)F)cc(C(F)(F)F)c2)C(C)=O)c2cc(C(F)(F)F)ccc2N1C(=O)OC(C)C", "< 0.01 µg/mL"],
  ["O=C1Cc2cc(CCN3CCN(c4nsc5ccccc45)CC3)c(Cl)cc2N1", "~0.15 µg/mL"],
  ["Cc1ccc(-c2cc(C(F)(F)F)nn2-c2ccc(S(N)(=O)=O)cc2)cc1", "~3.5 µg/mL"]
]}

* * *

Test: Solubility of drug in water
Format: physicochemical
Conditions: pH 7.5, aqueous buffer, read-out: solubility in water at pH 7.5

{"columns": ["Cpd Smiles", "solubility"],
 "data": [
  ["O=C1NC(=O)C(c2ccccc2)(c2ccccc2)N1", "~22 µg/mL"]
]}
